- Measured On: recominbant human tryptase, beta, from lung (Homo sapiens, UniProt P20231)
- Construct: purchased Promega or Enzo Life Sciences G5631 or BML-SE418
- Sequence (P20231 31-275): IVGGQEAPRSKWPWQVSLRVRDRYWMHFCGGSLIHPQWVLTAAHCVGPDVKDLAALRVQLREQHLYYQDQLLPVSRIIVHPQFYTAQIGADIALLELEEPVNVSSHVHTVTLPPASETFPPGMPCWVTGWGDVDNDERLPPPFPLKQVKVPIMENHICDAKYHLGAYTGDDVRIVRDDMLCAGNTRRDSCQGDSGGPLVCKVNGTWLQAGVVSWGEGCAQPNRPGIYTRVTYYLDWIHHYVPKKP
- Assay Procedure: Inhibition of tryptase activity by monomers and multimers (Boc-Gln-Ala-Arg-AMC fluorescence)
- Assay type: biochemical
- Details: monomers against tryptase; read-out: IC50 range group of additional monomers (boronic acid, benzooxaborole, ligands)
Some molecules, each annotated with its measured IC50.

| Given Smiles | IC50 |
| --- | --- |
| CONC(=O)c1cc(C(=O)N2CCC(c3cccc(CN)c3)CC2)ccc1O | 1000 to 10000 nM |
| N=C(N)c1ccc2c(c1)C1(CCN(C(=O)c3cccc(-c4cccc(B(O)O)c4)c3)CC1)CO2 | 0.1 to 1000 nM |
| NCc1cccc(C2CCN(C(=O)c3ccc(O)c(C(=O)NOc4ccccc4)c3)CC2)c1 | 1000 to 10000 nM |
| NCc1cccc(C2CCN(C(=O)c3ccc(O)c(O)c3O)CC2)c1 | 1000 to 10000 nM |

Kindly consider the entry below.
Query :: Answer with reported IC50 of NCc1cccc(C2CCN(C(=O)c3cccc(-c4cccc(B(O)O)c4)c3)CC2)c1
Result :: 0.1 to 1000 nM

* * *

- Measured On: recominbant human tryptase, beta, from lung (Homo sapiens)
- Construct: purchased Promega or Enzo Life Sciences G5631 or BML-SE418
- Assay Procedure: Inhibition of tryptase activity by monomers and multimers (Boc-Gln-Ala-Arg-AMC fluorescence)
- Assay type: biochemical
- Details: monomers against tryptase, Table 5; read-out: Monomer IC50 range
pIC50: −log10 of the molar value. Where a name gives a salt, the structure may show the parent alone.
Some compounds, each annotated with its measured pIC50.

These recorded examples may help you get a feel for the data.
| Compound | Value |
| --- | --- |
| NCc1ccc(F)c(C2CCN(C(=O)c3cccc4ccc(B(O)O)cc34)CC2)c1 [T11F] | 5.00 to 6.00 |
| NCc1ccc(C(=O)NCc2ccc(OCC(=O)N3C[C@@H](O)[C@H](O)C3)cc2)cc1 [CF6, hydrochloride] | 4.19 to 5.00 |
| CC(C)(O)c1ccc(/C=C/C(=O)N2CCC(c3cccc(CN)c3)CC2)cc1O | 6.00 to 10.00 |
| NCc1cccc(C2CCN(C(=O)c3cccc(C(=O)N4C[C@@H](O)[C@@H](O)C4)c3)CC2)c1 [T26diol trans] | 5.00 to 6.00 |

Kindly consider the entry below.
Query :: Answer with reported pIC50 of NCc1cccc(C2CCN(C(=O)/C=C/c3ccc(O)c(C(N)=O)c3)CC2)c1
Result :: 5.00 to 6.00

* * *

Some molecules, each annotated with its measured pIC50.
- Measured On: recominbant human tryptase, beta, from lung (Homo sapiens, UniProt P20231)
- Construct: purchased Promega or Enzo Life Sciences G5631 or BML-SE418
- Assay Procedure: Inhibition of tryptase activity by monomers and multimers (Boc-Gln-Ala-Arg-AMC fluorescence)
- Assay type: biochemical
- Details: monomers against tryptase; read-out: IC50 range group of additional monomers (boronic acid, benzooxaborole, ligands)
pIC50: −log10 of the molar value.

These recorded examples may help you get a feel for the data.
| Molecule | pIC50 |
| --- | --- |
| NCc1ccc2c(c1)C1(CCN(C(=O)c3cccc(-c4ccc(F)c(B(O)O)c4)c3)CC1)CO2 | 6.00 to 10.00 |
| CONC(=O)c1cc(C(=O)N2CCC3(CC2)COc2ccc(CN)cc23)ccc1O | 6.00 to 10.00 |
| NCc1cccc(C2CCN(C(=O)/C=C/c3cccc(B(O)O)c3)CC2)c1 | 5.00 to 6.00 |
| CONC(=O)c1ccc(C(=O)N2CCC(c3cccc(CN)c3)CC2)cc1O [T75A] | 6.00 to 10.00 |
| CONC(=O)c1cc(C)cc(C(=O)N2CCC(c3cccc(CN)c3)CC2)c1O [T136A] | 6.00 to 10.00 |
| CC(C)(O)c1ccc(C(=O)N2CCC(c3cccc(CN)c3)CC2)cc1O | 5.00 to 6.00 |
| NCc1cccc(C2CCN(C(=O)c3cccc(NC(=O)C4CC5CCC4C(O)C5O)c3)CC2)c1 (racemic) [T141ENDOANTI] | 6.00 to 10.00 |
| NCc1cccc(C2CCN(C(=O)/C=C/c3ccc(B(O)O)cc3)CC2)c1 | 5.00 to 6.00 |

Query :: Provide pIC50, tested on recominbant human tryptase, beta, from lung (Homo sapiens, UniProt P20231), for NCc1cccc(C2CCN(C(=O)c3ccc(-c4ccc5c(c4)COB5O)cc3)CC2)c1 .
Result :: 5.00 to 6.00

* * *

- Measured On: recominbant human tryptase, beta, from lung (Homo sapiens, UniProt P20231)
- Construct: purchased Promega or Enzo Life Sciences G5631 or BML-SE418
- Assay Procedure: Inhibition of tryptase activity by monomers and multimers (Boc-Gln-Ala-Arg-AMC fluorescence)
- Assay type: biochemical
- Details: monomers against tryptase; read-out: IC50 range group of additional monomers (boronic acid, benzooxaborole, ligands)
pIC50: −log10 of the molar value.
Reported Endpoint: pIC50

These recorded examples may help you get a feel for the data.
| Compound | pIC50 |
| --- | --- |
| NCc1cccc(C2CCN(C(=O)Cc3cc(=O)oc4c(O)c(O)ccc34)CC2)c1 [T98] | 4.19 to 5.00 |
| NCc1cccc(C2CCN(C(=O)c3cc(O)c(O)cc3O)CC2)c1 [T77] | 4.19 to 5.00 |
| NCc1cccc(C2CCN(C(=O)c3cccc(NC(=O)C4CC5CC4C(O)C5O)c3)CC2)c1 (racemic) [T139RACEENDO] | 5.00 to 6.00 |
| CSc1sc(C(=O)N2CCC3(CC2)COc2ccc(CN)cc23)cc1-c1cccc2c1C(C)OB2O (stereo not drawn) [T117GEMMONO] | 6.00 to 10.00 |
| NCc1cccc(C2CCN(C(=O)c3cc4ccc(B(O)O)cc4[nH]3)CC2)c1 [T59] | 5.00 to 6.00 |

Query :: Provide pIC50, tested on recominbant human tryptase, beta, from lung (Homo sapiens, UniProt P20231), for CSc1sc(C(=O)N2CCC3(CC2)COc2ccc(CN)cc23)cc1-c1cccc2c1COB2O [T117SPIRO] .
Result :: 6.00 to 10.00

Query :: Provide pIC50, tested on recominbant human tryptase, beta, from lung (Homo sapiens, UniProt P20231), for CC(O)(COc1cccc(C(=O)N2CCC(c3cccc(CN)c3)CC2)c1)C(=O)O (stereo not drawn) [T72] .
Result :: 6.00 to 10.00

Query :: Provide pIC50, tested on recominbant human tryptase, beta, from lung (Homo sapiens, UniProt P20231), for COc1cc(C(=O)N2CCC(c3cccc(CN)c3)CC2)cc(O)c1O [T104] .
Result :: 6.00 to 10.00

Query :: Provide pIC50, tested on recominbant human tryptase, beta, from lung (Homo sapiens, UniProt P20231), for NCc1cccc(C2CCN(C(=O)c3cccc(NC(=O)c4cccc(O)c4O)c3)CC2)c1 [T70] .
Result :: 6.00 to 10.00

Query :: Provide pIC50, tested on recominbant human tryptase, beta, from lung (Homo sapiens, UniProt P20231), for NCc1cccc(C2CCN(C(=O)Cc3ccc(B(O)O)cc3F)CC2)c1 [T58] .
Result :: 5.00 to 6.00

Query :: Provide pIC50, tested on recominbant human tryptase, beta, from lung (Homo sapiens, UniProt P20231), for NCc1cccc(C2CCN(C(=O)Cc3cc(B(O)O)ccc3F)CC2)c1 [T57] .
Result :: 5.00 to 6.00

* * *

- Measured On: recominbant human tryptase, beta, from lung (Homo sapiens)
- Construct: purchased Promega or Enzo Life Sciences G5631 or BML-SE418
- Assay Procedure: Inhibition of tryptase activity by monomers and multimers (Boc-Gln-Ala-Arg-AMC fluorescence)
- Format: biochemical
- Details: monomers against tryptase, Table 5; read-out: Monomer IC50 range
Some molecules, each annotated with its measured IC50.

These recorded examples may help you get a feel for the data.
| Molecule | IC50 |
| --- | --- |
| NCc1cccc(C2CCN(C(=O)c3ccc4ccn(CC(O)(C(=O)O)c5ccccc5)c4c3)CC2)c1 (centres unmarked) | 0.1 to 1000 nM |
| NCc1ccc2c(c1)C1(CCN(C(=O)c3ccc(O)c(O)c3)CC1)CO2 | 0.1 to 1000 nM |
| NCc1cccc(C2CCN(C(=O)c3cc4c(B(O)O)cccc4[nH]3)CC2)c1 | 1000 to 10000 nM |

Query :: Answer with reported IC50 of NCc1cccc(C2CCN(C(=O)c3cccc(-c4cccc(B(O)O)c4)c3)CC2)c1
Result :: 0.1 to 1000 nM

Query :: Answer with reported IC50 of NCc1cccc(C2CCN(C(=O)c3cc4c(B(O)O)cccc4s3)CC2)c1
Result :: 0.1 to 1000 nM
